biological target: MMP-9 (Homo sapiens); construct: from tissue; host or cells: human polymorphonuclear leukocytes (PMN) from whole blood (New York Blood Center), PMA-stimulated supernatant; test: Automated MMP Profiling Assay, MMP-9 fluorogenic; assay type: biochemical; details: 96-well automated, P218
Sequence (P14780 107-707 limits assumed): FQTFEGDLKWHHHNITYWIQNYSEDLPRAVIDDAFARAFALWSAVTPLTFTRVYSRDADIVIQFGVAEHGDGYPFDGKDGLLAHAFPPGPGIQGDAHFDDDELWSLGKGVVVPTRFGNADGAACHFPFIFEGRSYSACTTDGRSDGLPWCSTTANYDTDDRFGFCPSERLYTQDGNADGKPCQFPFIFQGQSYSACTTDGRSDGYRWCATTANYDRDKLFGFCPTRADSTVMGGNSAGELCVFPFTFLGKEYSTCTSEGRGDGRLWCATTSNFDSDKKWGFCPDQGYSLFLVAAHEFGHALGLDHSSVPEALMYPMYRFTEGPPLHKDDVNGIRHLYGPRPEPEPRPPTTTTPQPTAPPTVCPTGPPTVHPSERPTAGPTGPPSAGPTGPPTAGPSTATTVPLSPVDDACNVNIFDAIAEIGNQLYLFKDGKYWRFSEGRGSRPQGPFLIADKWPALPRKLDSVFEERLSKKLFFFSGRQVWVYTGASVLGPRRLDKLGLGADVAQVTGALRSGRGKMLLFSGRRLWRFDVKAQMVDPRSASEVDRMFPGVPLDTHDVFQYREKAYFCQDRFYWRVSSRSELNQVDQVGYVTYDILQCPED
READOUT: pIC50
Please note pIC50 is a logarithmic value: minus log10 of concentration in mol/L. Answer with that number alone.

See these solved cases before continuing.
COMPOUND: O=C(O)[C@@H]1[C@@H](C(=O)c2ccc(-c3ccc(Cl)cc3)cc2)CC[C@H]1SCc1ccccc1 (relative stereo)
MEASUREMENT_TARGET: MMP-9 (Homo sapiens)
pIC50: 6.83
--
COMPOUND: O=C(O)[C@H]1[C@H](CSCc2ccccc2)CC[C@@H]1C(=O)c1ccc(-c2ccc(Cl)cc2)cc1 (relative stereo)
MEASUREMENT_TARGET: MMP-9 (Homo sapiens)
pIC50: 7.19
--
COMPOUND: COc1ccccc1C(=O)OC[C@@H]1CC[C@H](C(=O)c2ccc(-c3ccc(Cl)cc3)cc2)[C@H]1C(=O)O (relative stereo)
MEASUREMENT_TARGET: MMP-9 (Homo sapiens)
pIC50: 7.01

Ask: What pIC50 appears in the records for this compound with MMP-9 (Homo sapiens)? C#Cc1ccc(-c2ccc(C(=O)CC(CCCc3ccccc3)C(=O)O)cc2)cc1 (centres unmarked)
Result: 6.82

Ask: Request - read-out pIC50 | tested on MMP-9 (Homo sapiens) | compound O=C(O)[C@@H]1[C@@H](C(=O)c2ccc(-c3ccc(Cl)cc3)cc2)CC[C@H]1Sc1ccccc1 [Example 296]
Result: 6.95

meta.source: patent US5789434A
